# System Name: hM1 mAChR (Homo sapiens)
# Construct: expressed in transfected cells
# Assay Details: IP1 accumulation assay (ACh concentration-response curves in absence or presence of modulator)
# Type: cell-based
# Stated Conditions: 1 μM modulator; FlpIn CHO hM1 cells; mean ± SEM, 3 experiments
Quick rule for you: ΔpEC50 [1 μM]: change in ACh pEC50 in presence of M1 PAM compared to control curve under 0.3 gets 1.0, anything else gets 0.0.

// known answers, use as guide
Molecule	Group Label
Cn1cc(-c2ccc(COc3cccc(O)c3-c3ccn(C4CCCCC4O)c(=O)c3)cc2)cn1 (centres unmarked) [Compound 7g]	1.0
Cn1cc(-c2ccc(COc3cccc(O)c3-c3cc(=O)n(C4CCCCC4O)cn3)cc2)cn1 (centres unmarked) [Compound 26d]	0.0
Cn1cc(-c2ccc(COc3ccccc3-c3ccn(C4CCCCC4=O)c(=O)c3)cc2)cn1 (centres unmarked) [Compound 13d]	1.0
Cn1cc(-c2ccc(COc3ccsc3-c3ccn(C4CCCCC4O)c(=O)c3)cc2)cn1 (centres unmarked) [Compound 7h]	0.0

[ask] Given the entry Cn1cc(-c2ccc(COc3ccncc3-c3ccn(C4CCCCC4O)c(=O)c3)cc2)cn1 (centres unmarked) [Compound 7d] , would its reported ΔpEC50 [1 μM]: change in ACh pEC50 in presence of M1 PAM compared to control curve be below 0.3?
[reply] 1.0

[ask] Given the entry COC1CCCCC1n1cnc(-c2ccccc2OCc2ccc(-c3cnn(C)c3)cc2)cc1=O (centres unmarked) [Compound 28a] , would its reported ΔpEC50 [1 μM]: change in ACh pEC50 in presence of M1 PAM compared to control curve be below 0.3?
[reply] 0.0

[ask] Given the entry O=c1cc(-c2ccccc2OCc2ccc(-n3cccn3)nc2)ncn1C1CCCCC1O (centres unmarked) [Compound 27b] , would its reported ΔpEC50 [1 μM]: change in ACh pEC50 in presence of M1 PAM compared to control curve be below 0.3?
[reply] 0.0

[ask] Given the entry Cn1cc(-c2ccc(COc3ccccc3-c3ccn(C4CCCCC4O)c(=O)c3)cc2)cn1 (centres unmarked) [Compound 1] , would its reported ΔpEC50 [1 μM]: change in ACh pEC50 in presence of M1 PAM compared to control curve be below 0.3?
[reply] 0.0

###

# System Name: hM1 mAChR (Homo sapiens, UniProt P11229)
# Construct: expressed in transfected cells
# Sequence (P11229 whole entry): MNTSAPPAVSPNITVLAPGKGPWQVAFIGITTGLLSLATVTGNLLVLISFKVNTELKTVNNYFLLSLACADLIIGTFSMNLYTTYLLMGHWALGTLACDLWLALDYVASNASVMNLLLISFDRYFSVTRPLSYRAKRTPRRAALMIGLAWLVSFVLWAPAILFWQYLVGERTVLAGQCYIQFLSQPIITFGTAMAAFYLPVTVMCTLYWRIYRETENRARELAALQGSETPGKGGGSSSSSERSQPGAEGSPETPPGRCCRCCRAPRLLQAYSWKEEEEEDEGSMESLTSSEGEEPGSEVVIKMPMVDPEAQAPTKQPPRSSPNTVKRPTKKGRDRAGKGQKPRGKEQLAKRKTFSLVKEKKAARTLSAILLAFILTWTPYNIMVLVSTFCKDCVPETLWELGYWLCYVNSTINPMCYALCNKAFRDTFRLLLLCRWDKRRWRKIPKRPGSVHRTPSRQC
# Assay Details: Whole-cell [3H]NMS equilibrium competition radioligand binding
# Stated Conditions: [3H]NMS binding; allosteric ternary complex model; mean ± SEM; read-out: pKB (negative logarithm of the allosteric modulator equilibrium dissociation constant) (converted)
Property Name: Kb (µM)
Numbers only, in µM.

The cases that follow already have their Kb on record.
Compound	Display Unit	Kb
Cn1cc(-c2ccc(COc3ncccc3-c3ccn(C4CCCCC4O)c(=O)c3)cc2)cn1 (stereo not shown)	µM	38
Cn1cc(-c2ccc(COc3ncccc3-c3cc(=O)n(C4CCCCC4O)cn3)cc2)cn1 (stereo not shown) [Compound 26a]	µM	3.31
CN(C)C(=O)Cn1ccc(-c2ccccc2OCc2ccc(-c3cnn(C)c3)cc2)cc1=O [Compound 13c]	µM	16.6

Next:
[ask] Quote hM1 mAChR (Homo sapiens, UniProt P11229) Kb for entry Cn1cc(-c2ccc(COc3ccsc3-c3ccn(C4CCCCC4O)c(=O)c3)cc2)cn1 (stereo not shown) .
[reply] 6.03

###

# System Name: hM1 mAChR (Homo sapiens)
# Construct: expressed in transfected cells
# Assay Details: IP1 accumulation assay (ACh concentration-response curves in absence or presence of modulator)
# Assay type: cell-based
# Stated Conditions: IP1 accumulation; operational model; pKB constrained to binding value
Lab note: compare log αβ (logarithm of functional cooperativity between ACh and modulator) against 2. Equal or greater, write Fulfilled. Smaller, write Not fulfilled.

Molecule	System Name	Group Label
Cn1cc(-c2ccc(COc3ncccc3-c3cc(=O)n(C4CCCCC4O)cn3)cc2)cn1 (stereo not drawn) [Compound 26a]	hM1 mAChR (Homo sapiens)	Not fulfilled
Cn1cc(-c2ccc(COc3ccccc3-c3cc(=O)n(C4CCCCC4O)cn3)cc2)cn1 (stereo not drawn) [Compound 2]	hM1 mAChR (Homo sapiens)	Fulfilled
Cn1cc(-c2ccc(COc3ccccc3-c3ccn(C4CCCCC4=O)c(=O)c3)cc2)cn1 (stereo not drawn) [Compound 13d]	hM1 mAChR (Homo sapiens)	Not fulfilled

[ask] Does CN(C)C(=O)Cn1ccc(-c2ccccc2OCc2ccc(-c3cnn(C)c3)cc2)cc1=O [Compound 13c] have a reported log αβ (logarithm of functional cooperativity between ACh and modulator) of at least 2?
[reply] Fulfilled

[ask] Does COc1ccc(Cn2cc(C(=O)O)c(=O)c3ccccc32)cc1 [BQCA, reference compound] have a reported log αβ (logarithm of functional cooperativity between ACh and modulator) of at least 2?
[reply] Fulfilled

[ask] Does Cn1cc(-c2ccc(COc3ccsc3-c3ccn(C4CCCCC4O)c(=O)c3)cc2)cn1 (stereo not drawn) [Compound 7h] have a reported log αβ (logarithm of functional cooperativity between ACh and modulator) of at least 2?
[reply] Fulfilled

[ask] Does Cn1cc(-c2ccc(COc3ncccc3-c3ccn(C4CCCCC4O)c(=O)c3)cc2)cn1 (stereo not drawn) [Compound 7f] have a reported log αβ (logarithm of functional cooperativity between ACh and modulator) of at least 2?
[reply] Fulfilled

###

I'd appreciate it if you could supply activation at 10 µM values for the items below.
# System Name: hM1 mAChR (Homo sapiens)
# Construct: expressed in transfected cells
# Assay Details: IP1 accumulation assay (ACh concentration-response curves in absence or presence of modulator)
# Format: cell-based
# Stated Conditions: 10 μM modulator; FlpIn CHO hM1 cells; mean ± SEM, 3 experiments; read-out: Δbaseline [10 μM]: change in basal response in presence of M1 PAM compared to control curve

The cases that follow already have their activation at 10 µM on record.
Compound	activation at 10 µM
CN(C)C(=O)Cn1ccc(-c2ccccc2OCc2ccc(-c3cnn(C)c3)cc2)cc1=O [Compound 13c]	63.6%
Cc1ccc(-c2ccn(C3CCCCC3O)c(=O)c2)c(OCc2ccc(-c3cnn(C)c3)cc2)c1 (stereo not drawn)	10.7%
O=c1cc(-c2ccccc2OCc2ccc(-n3cccn3)nc2)ncn1C1CCCCC1O (stereo not drawn) [Compound 27b]	78.6%
Cn1cc(-c2ccc(COc3ccccc3-c3ccn(C4CCCCC4=O)c(=O)c3)cc2)cn1 (stereo not drawn) [Compound 13d]	27%
Cn1cc(-c2ccc(COc3ncccc3-c3ccn(C4CCCCC4O)c(=O)c3)cc2)cn1 (stereo not drawn)	20.5%

Items follow; give activation at 10 µM for each.
1. Cc1cc(OCc2ccc(-c3cnn(C)c3)cc2)c(-c2ccn(C3CCCCC3O)c(=O)c2)cc1C (stereo not drawn)
2. Cn1cc(-c2ccc(COc3ccccc3-c3ccn(C4CCCCC4)c(=O)c3)cc2)cn1 [Compound 13b]
3. Cn1cc(-c2ccc(COc3ccncc3-c3ccn(C4CCCCC4O)c(=O)c3)cc2)cn1 (stereo not drawn)

[reply]
1. 2.8%
2. -1.9%
3. 1.24%

[ask] Output measured activation at 10 µM for this item: Cn1cc(-c2ccc(Cn3cccc(-c4ccn(C5CCCCC5O)c(=O)c4)c3=O)cc2)cn1 (stereo not drawn)
[reply] 5.6%

###

# System Name: hM1 mAChR (Homo sapiens)
# Construct: expressed in transfected cells
# Assay Details: Whole-cell [3H]NMS equilibrium competition radioligand binding
# Stated Conditions: [3H]NMS binding; allosteric ternary complex model; mean ± SEM; read-out: pKB (negative logarithm of the allosteric modulator equilibrium dissociation constant) (converted)
# Procedure: To determine the affinity (pKB) of the allosteric modulators for the allosteric site, and their binding cooperativity with ACh (log αACh) at the M1 mAChR, whole cell equilibrium competition binding studies were performed, using [^3H]NMS to label the orthosteric site. […]
Property Name: Kb (µM)
Numbers only, in µM.

The cases that follow already have their Kb on record.
Molecule	Property Name	Readout Number
O=c1cc(-c2ccccc2OCc2ccc(-n3cccn3)nc2)ncn1C1CCCCC1O (stereo not drawn) [Compound 27b]	Kb	15.8
Cn1cc(-c2ccc(COc3ccccc3-c3ccn(C4CCCCC4=O)c(=O)c3)cc2)cn1 (stereo not drawn) [Compound 13d]	Kb	29.5

Next:
[ask] Quote hM1 mAChR (Homo sapiens) Kb for entry Cn1cc(-c2ccc(COc3ccccc3-c3ccn(C4CCCCC4O)c(=O)c3)cc2)cn1 (stereo not drawn) [Compound 1] .
[reply] 11

###

# System Name: hM1 mAChR (Homo sapiens, UniProt P11229)
# Construct: expressed in transfected cells
# Assay Details: IP1 accumulation assay (ACh concentration-response curves in absence or presence of modulator)
# Assay type: cell-based
# Stated Conditions: 10 μM modulator; FlpIn CHO hM1 cells; mean ± SEM, 3 experiments
Classification by ΔpEC50 [10 μM]: change in ACh pEC50 in presence of M1 PAM compared to control curve follows these ranges: lower level = under 0.3, middle level = from 0.3 up to 0.8, upper level = 0.8 and over

// known answers, use as guide
Compound	System Name	Group Label
O=c1cc(-c2ccccc2OCc2ccc(-n3cccn3)nc2)ncn1C1CCCCC1O (stereo not shown) [Compound 27b]	hM1 mAChR (Homo sapiens, UniProt P11229)	upper level
Cc1ccc(OCc2ccc(-c3cnn(C)c3)cc2)c(-c2ccn(C3CCCCC3O)c(=O)c2)c1 (stereo not shown)	hM1 mAChR (Homo sapiens, UniProt P11229)	middle level
Cn1cc(-c2ccc(COc3ccccc3-c3ccc(-c4ccccc4O)cc3)cc2)cn1	hM1 mAChR (Homo sapiens, UniProt P11229)	lower level
Cc1cc(OCc2ccc(-c3cnn(C)c3)cc2)c(-c2ccn(C3CCCCC3O)c(=O)c2)cc1C (stereo not shown)	hM1 mAChR (Homo sapiens, UniProt P11229)	middle level
Cn1cc(-c2ccc(COc3ccccc3-c3ccn(C4CCCCC4)c(=O)c3)cc2)cn1 [Compound 13b]	hM1 mAChR (Homo sapiens, UniProt P11229)	lower level
Cn1cc(-c2ccc(COc3ccsc3-c3ccn(C4CCCCC4O)c(=O)c3)cc2)cn1 (stereo not shown)	hM1 mAChR (Homo sapiens, UniProt P11229)	upper level

[ask] Class? Entry: Cc1ccc(-c2ccn(C3CCCCC3O)c(=O)c2)c(OCc2ccc(-c3cnn(C)c3)cc2)c1 (stereo not shown)
[reply] middle level

[ask] Class? Entry: COC1CCCCC1n1cnc(-c2ccccc2OCc2ccc(-c3cnn(C)c3)cc2)cc1=O (stereo not shown) [Compound 28a]
[reply] lower level

[ask] Class? Entry: COC1CCCCC1n1ccc(-c2ccccc2OCc2ccc(-c3cnn(C)c3)cc2)cc1=O (stereo not shown)
[reply] upper level

[ask] Class? Entry: Cn1cc(-c2ccc(COc3ccncc3-c3ccn(C4CCCCC4O)c(=O)c3)cc2)cn1 (stereo not shown)
[reply] lower level
